- Tested on: blood serum HDL cholesterol
- Measurement notes: Determination of serum HDL cholesterol in cholesterol/cholic acid-fed rats
- Type: in vivo
- Settings: Rattus norvegicus, feed or water, 192 h; male Sprague-Dawley rats, diet supplemented with 0.25% cholic acid and 1.0% cholesterol; 100 mg/kg mixed in diet; eight days; serum HDL-C by FPLC; read-out: HDL Cholesterol Level Increase (%)
Please respond with Fulfilled when measured change in vivo at 100 mg/kg is strictly beneath 200%, and with Not fulfilled in all other cases.

Request: I'd appreciate it if you could check whether CCN1C(=O)C(=O)N(c2ccc(Cl)cc2C)C1=S has change in vivo at 100 mg/kg smaller than 200%.
Response: Fulfilled

Request: I'd appreciate it if you could check whether C#CCN1C(=O)C(=O)N(c2cc(Cl)ccc2C)C1=S has change in vivo at 100 mg/kg smaller than 200%.
Response: Fulfilled

Request: I'd appreciate it if you could check whether CCN1C(=O)C(=O)N(c2cc(Cl)ccc2C)C1=S has change in vivo at 100 mg/kg smaller than 200%.
Response: Fulfilled
